tested on: HCT116; experiment: Reverse Phase Protein Analysis (RPPA); assay type: cell-based, human; details: % change from DMSO (matched cell line)
What Avg(p70 S6 Kinase S371 S394) was measured for each of the following?
Give bare numbers, in %.

Example results:
compound	Avg(p70 S6 Kinase S371 S394), %
O=C(Nc1ccc2[nH]nc(-c3ccncc3)c2c1)[C@@H]1CCN(CC(=O)N2CCN(c3ccc(-c4ncccn4)cc3)CC2)C1 [SCH772984]	−12.3
Cn1nccc1Nc1nccc(-c2ccn([C@H](CO)c3ccc(Cl)c(F)c3)c(=O)c2)n1 [GDC-0994]	−11.47
CC(C)Nc1cc(-c2c[nH]c(C(=O)N[C@H](CO)c3cccc(Cl)c3)c2)c(Cl)cn1 [BVD-523]	−16.9

Turning to the following compound.
**Q:** Which Avg(p70 S6 Kinase S371 S394) reading was recorded for the compound Cc1cnc(Nc2ccc(F)cc2Cl)nc1-c1c[nH]c(C(=O)N[C@H](CO)c2cccc(Cl)c2)c1 [Vx-11e] ?
**A:** −9.89
